tested on: human FP receptor (Homo sapiens)
Sequence (P43088 whole entry): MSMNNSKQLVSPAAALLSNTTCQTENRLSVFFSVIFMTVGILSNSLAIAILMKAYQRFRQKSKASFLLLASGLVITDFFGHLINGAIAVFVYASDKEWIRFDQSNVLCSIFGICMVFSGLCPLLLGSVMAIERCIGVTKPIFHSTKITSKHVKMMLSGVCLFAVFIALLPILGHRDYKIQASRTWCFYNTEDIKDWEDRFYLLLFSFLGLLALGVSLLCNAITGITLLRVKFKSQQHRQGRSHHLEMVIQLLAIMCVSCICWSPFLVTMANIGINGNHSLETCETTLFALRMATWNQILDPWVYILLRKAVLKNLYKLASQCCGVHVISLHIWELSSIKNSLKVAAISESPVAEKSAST
assay details: Total inositol phosphate accumulation, HEK-293 cells with recombinant human FP receptor
Assay type: cell-based
Parameters: expressed in transfected cells
condition: HEK-293 cells, recombinant human FP receptor; read-out: E.C.50, total inositol phosphate accumulation
measured quantity: pEC50
Friendly reminder that pEC50 comes from taking -log10 of the concentration in mol/L.

Challenge: Give its pEC50 value. Item: O=C(O)CCC/C=C\C[C@@H]1[C@@H](/C=C/[C@@H](O)CCc2ccccc2)[C@H](O)C[C@@H]1O [17-phenyl PGF2α, 17-phenyl prostaglandin F2α, reference compound]
Response given: 8.10

Below: the item to evaluate.
Challenge: Entry under review: CCCCC[C@H](O)/C=C/[C@@H]1[C@@H](C/C=C\CCCC(=O)NCCO)[C@@H](O)C[C@H]1O [PGF2α 1-ethanolamide] . Reported pEC50?
Response given: 6.00

====

System: rabbit jugular vein segment
assay details: Vasorelaxation of histamine precontracted rabbit jugular vein segment
condition: Oryctolagus cuniculus; histamine precontracted; read-out: E.C.50, vasorelaxation of the precontracted rabbit jugular vein segment
This section presents compounds with their documented pEC50 values.
Expect pEC50 as a plain number equal to -log10 of the molar concentration.

Challenge: pEC50 for CCCCC[C@H](O)/C=C/[C@@H]1[C@@H](C/C=C\CCCC(=O)NCCO)[C@@H](O)C[C@H]1O [PGF2α 1-ethanolamide] ?
Response given: 5.70

# input for lookup
Challenge: Fill in the blank: the reported pEC50 of CCCCC[C@H](O)/C=C/[C@@H]1[C@@H](C/C=C\CCCC(=O)O)[C@@H](O)C[C@H]1O [PGF2α, reference compound] is ____.
Response given: 8.28

====

tested on: human FP receptor (Homo sapiens)
assay details: Radioligand binding competition vs 3H-17-phenyl PGF2α, recombinant human FP receptor
Design: expressed in transfected cells
condition: read-out: I.C.50, radioligand binding
measured quantity: IC50
Write down the value, and be sure its unit follows.

Challenge: Item under review: CCCCC[C@H](O)/C=C/[C@@H]1[C@@H](C/C=C\CCCC(=O)NCCO)[C@@H](O)C[C@H]1O [PGF2α 1-ethanolamide] . Reported IC50?
Response given: 2020 nM

====

tested on: recombinant feline FP receptor (Felis catus)
Sequence (A0ABI7XJ69 entry or part of it): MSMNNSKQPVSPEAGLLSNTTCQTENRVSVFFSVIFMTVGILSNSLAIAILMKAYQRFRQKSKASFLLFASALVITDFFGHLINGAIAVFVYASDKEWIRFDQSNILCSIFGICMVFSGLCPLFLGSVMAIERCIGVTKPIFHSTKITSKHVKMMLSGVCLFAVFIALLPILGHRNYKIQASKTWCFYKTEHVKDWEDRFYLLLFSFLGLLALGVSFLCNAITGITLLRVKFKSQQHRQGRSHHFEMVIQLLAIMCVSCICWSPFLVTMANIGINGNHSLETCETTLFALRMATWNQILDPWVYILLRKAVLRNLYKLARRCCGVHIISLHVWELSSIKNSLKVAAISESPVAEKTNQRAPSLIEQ
assay details: Ca2+ signal in HEK-293 cells stably transfected with recombinant feline FP receptor
Format: cell-based, cat
condition: HEK-293 cells, recombinant feline FP receptor; read-out: E.C.50, Ca2+ signal
Reported EC50 values for a set of molecules
Show the value, then the unit it is measured in.

Challenge: Data request, read-out EC50, for CCCCC[C@H](O)/C=C/[C@@H]1[C@@H](C/C=C\CCCC(=O)NCCO)[C@@H](O)C[C@H]1O [PGF2α 1-ethanolamide]
Response given: 1.46 µM

Challenge: Then this molecule: CCCCC[C@H](O)/C=C/[C@@H]1[C@@H](C/C=C\CCCC(=O)O)[C@@H](O)C[C@H]1O [PGF2α, reference compound]
Response given: 0.014 µM

====

tested on: human FP receptor (Homo sapiens)
assay details: Ca2+ signal in CRL 1497 cells
Type: cell-based
Set-up: endogenous in cells; host or cells: CRL 1497 human dermal fibroblasts
condition: CRL 1497 human dermal fibroblasts; read-out: E.C.50, Ca2+ signal
measured quantity: EC50 (nM)
API: value field is a number in nM; no unit string.

Challenge: So what does the record say about EC50 for CCCCC[C@H](O)/C=C/[C@@H]1[C@@H](C/C=C\CCCC(=O)NCCO)[C@@H](O)C[C@H]1O [PGF2α 1-ethanolamide] ?
Response given: 1590
